test: clinical; settings: human, plasma, oral, 120 mg, Cmax, GLSM (geometric least squares mean), 120 mg DS (Fasted), n = 6
value_kind: Cmax (ng/mL)
The answer is to be given in ng/mL; state only the numeric part.

Prompt: State the recorded Cmax for this entry: CN(C)C[C@H]1CN(CCc2ccsc2)CC[C@]1(O)c1cccc(C(N)=O)c1
Response: 81.9

----------
experiment: clinical; conditions: human, plasma, po, 400 mg
value_kind: Vd/F
Write down the value, and be sure its unit follows.

Prompt: What measured Vd/F goes with CN(C)C[C@H]1CN(CCc2ccsc2)CC[C@]1(O)c1cccc(C(N)=O)c1 [Compound I] ?
Response: 20400 L

----------
assay: clinical; conditions: human, plasma, oral, 200 mg
value_kind: Vd/F (L)
Give your result in L as a bare value.

Prompt: Reported Vd/F for CN(C)C[C@H]1CN(CCc2ccsc2)CC[C@]1(O)c1cccc(C(N)=O)c1 [Compound I] : what is it?
Response: 18100

----------
Test: clinical
Details: human, plasma, oral, 120 mg, Cmax, GLSM (geometric least squares mean), 120 mg DS (Fed), n = 6
Protocol: The reference treatment i fasted condition for all comparisons. Eight subjects in Cohort A3 participated in a 2-period treatment design in which they were assessed for the single-dose of drug substance in a Fasted condition and in a Fed condition. […]
value_kind: Cmax (ng/mL)
Give the quantity in ng/mL, number only.

Prompt: GET /values?readout=Cmax&item= CN(C)C[C@H]1CN(CCc2ccsc2)CC[C@]1(O)c1cccc(C(N)=O)c1 [Compound I]
Response: 36.9

----------
assay: clinical; conditions: human, plasma, po, 20 mg
value_kind: Vd/F (L)
Express the result in L but write the number alone.

Prompt: Query: Vd/F; subject: CN(C)C[C@H]1CN(CCc2ccsc2)CC[C@]1(O)c1cccc(C(N)=O)c1
Response: 1380

----------
test: clinical; conditions: human, plasma, po, 200 mg
value_kind: Vd/F (L)
Give just the number in L; leave the unit off.

Prompt: Data request, read-out Vd/F, for CN(C)C[C@H]1CN(CCc2ccsc2)CC[C@]1(O)c1cccc(C(N)=O)c1
Response: 18100

----------
test: clinical; details: human, plasma, po, 120 mg
value_kind: Vd/F (L)
Write the number in L without appending the unit.

Prompt: Which Vd/F reading was recorded for the molecule CN(C)C[C@H]1CN(CCc2ccsc2)CC[C@]1(O)c1cccc(C(N)=O)c1 ?
Response: 12300

----------
test: clinical; details: human, plasma, po, 120 mg
value_kind: Tmax (h)
The reply should be a number in h, with the unit left off.

Prompt: Consider the molecule shown here: CN(C)C[C@H]1CN(CCc2ccsc2)CC[C@]1(O)c1cccc(C(N)=O)c1 What is its recorded Tmax?
Response: 2.28

----------
assay: Phase I single ascending dose pharmacokinetics of metabolite Compound II in plasma; format: in vivo, human; conditions: human, plasma, po, 400 mg, metabolite after 400 mg DS (Fasted), single oral dose, plasma; read-out: AUC0-last (zero to 24 hours postdose), Mean
value_kind: AUC(0-t) (ng·h/mL)
Dear colleague, please return just the value in ng·h/mL, with no unit written.

Prompt: Entry CNC[C@H]1CN(CCc2ccsc2)CC[C@]1(O)c1cccc(C(N)=O)c1 [Compound II] has what AUC(0-t)?
Response: 27.3

----------
experiment: clinical; conditions: human, plasma, po, 120 mg, AUC0-last (zero to 24 hours postdose), Mean, 120 mg DS (Fasted), single oral dose, N = 6
value_kind: AUC(0-t)

Prompt: Query (compound): CN(C)C[C@H]1CN(CCc2ccsc2)CC[C@]1(O)c1cccc(C(N)=O)c1 ; field requested: AUC(0-t)
Response: 211 ng·h/mL
